The following molecules are shown together with reported inhibition at 1 µM values.
- TARGET_SYSTEM: BRAF (V600E) kinase (Homo sapiens, UniProt P15056, V600E)
- Construct: Flag (N); made in house; host or cells: SF-21 insect cells, recombinant baculovirus BAC-V600E
- Sequence (P15056 457-717 V600E limits assumed): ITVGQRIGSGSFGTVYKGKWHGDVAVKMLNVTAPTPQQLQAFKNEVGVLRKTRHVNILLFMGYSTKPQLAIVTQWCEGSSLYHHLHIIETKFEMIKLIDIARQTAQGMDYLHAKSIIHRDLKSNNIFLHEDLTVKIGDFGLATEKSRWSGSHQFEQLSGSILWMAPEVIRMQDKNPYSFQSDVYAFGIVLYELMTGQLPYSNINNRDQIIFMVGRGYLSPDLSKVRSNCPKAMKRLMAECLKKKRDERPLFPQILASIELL
- PROCEDURE_TEXT: Determination of BRAF (V600E) kinase inhibitory activity
- Assay type: biochemical
- MEASUREMENT_PARAMETERS: 1.0 μM test compound; BRAF (V600E) enzyme, GST-MEK1 (K96R) substrate, [γ-32P]ATP; read-out: Inhibitory rate (%) at 1.0 μM
MEASUREMENT_TYPE: inhibition at 1 µM

[
  {
    "MOLECULE": "O=C(Nc1ccc(C(F)(F)F)cc1)c1cccc(Oc2ccc3nc(NC(=O)C4CC4)sc3c2)c1 [Example A25]",
    "TARGET_SYSTEM": "BRAF (V600E) kinase (Homo sapiens, UniProt P15056, V600E)",
    "MEASUREMENT_TYPE": "inhibition at 1 µM",
    "MEASURED_VALUE": "100%"
  },
  {
    "MOLECULE": "CC(C)(C#N)c1cccc(C(=O)Nc2cccc(Oc3ccc4nc(NC(=O)C5CC5)sc4c3)c2)c1 [Example A12]",
    "TARGET_SYSTEM": "BRAF (V600E) kinase (Homo sapiens, UniProt P15056, V600E)",
    "MEASUREMENT_TYPE": "inhibition at 1 µM",
    "MEASURED_VALUE": "100%"
  },
  {
    "MOLECULE": "COc1ccc(NC(=O)c2cccc(C(C)(C)C#N)c2)cc1Oc1ccc2nc(NC(=O)C3CC3)sc2c1 [Example A21]",
    "TARGET_SYSTEM": "BRAF (V600E) kinase (Homo sapiens, UniProt P15056, V600E)",
    "MEASUREMENT_TYPE": "inhibition at 1 µM",
    "MEASURED_VALUE": "98%"
  },
  {
    "MOLECULE": "O=C(Nc1cccc(C(F)(F)F)c1)c1cccc(Oc2ccc3nc(NC(=O)C4CC4)sc3c2)c1 [Example A29]",
    "TARGET_SYSTEM": "BRAF (V600E) kinase (Homo sapiens, UniProt P15056, V600E)",
    "MEASUREMENT_TYPE": "inhibition at 1 µM",
    "MEASURED_VALUE": "100%"
  },
  {
    "MOLECULE": "N#CC1(c2cccc(C(=O)Nc3cccc(Oc4ccc5nc(NC(=O)C6CC6)sc5c4)c3)c2)CC1 [Example A1]",
    "TARGET_SYSTEM": "BRAF (V600E) kinase (Homo sapiens, UniProt P15056, V600E)",
    "MEASUREMENT_TYPE": "inhibition at 1 µM",
    "MEASURED_VALUE": "98%"
  },
  {
    "MOLECULE": "O=C(Nc1cccc(Oc2ccc3nc(NC(=O)C4CC4)oc3c2)c1)c1cccc(C(F)(F)F)c1 [Example B1]",
    "TARGET_SYSTEM": "BRAF (V600E) kinase (Homo sapiens, UniProt P15056, V600E)",
    "MEASUREMENT_TYPE": "inhibition at 1 µM",
    "MEASURED_VALUE": "100%"
  },
  {
    "MOLECULE": "O=C(Nc1cccc(Oc2ccc3nc(NC(=O)C4CC4)[nH]c3c2)c1)c1cccc(C(F)(F)F)c1 [Example C1]",
    "TARGET_SYSTEM": "BRAF (V600E) kinase (Homo sapiens, UniProt P15056, V600E)",
    "MEASUREMENT_TYPE": "inhibition at 1 µM",
    "MEASURED_VALUE": "99%"
  },
  {
    "MOLECULE": "N#CC1(c2cccc(C(=O)Nc3cccc(Oc4ccc5nc(NC(=O)c6cocn6)sc5c4)c3)c2)CC1 [Example A15]",
    "TARGET_SYSTEM": "BRAF (V600E) kinase (Homo sapiens, UniProt P15056, V600E)",
    "MEASUREMENT_TYPE": "inhibition at 1 µM",
    "MEASURED_VALUE": "100%"
  },
  {
    "MOLECULE": "Cc1ccc(Oc2ccc3nc(NC(=O)CO)sc3c2)cc1NC(=O)c1cccc(C2(C#N)CC2)c1 [Example A6]",
    "TARGET_SYSTEM": "BRAF (V600E) kinase (Homo sapiens, UniProt P15056, V600E)",
    "MEASUREMENT_TYPE": "inhibition at 1 µM",
    "MEASURED_VALUE": "99%"
  }
]
